# Test system: THRa homodimer (NR concentration 90 nM)
# PROTOCOL SUMMARY: PBM binding z-score (relative to random genomic background probes); higher = stronger binding; sequences stand for … in GC…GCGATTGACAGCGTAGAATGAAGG
Binary classification by PBM binding z-score, with -0.05 as an inclusive lower bound for label 1; all other cases are label 0.

Solved cases below.
Q: Check the entry TCTATTAGTTGAAGGGGAACCGACGAGTCCGTTT : does PBM binding z-score equal or exceed -0.05?
A: label 1

Q: Let us now turn to CGTCCAAGGTCAAAGCTAGGTCAGTGAAAGCATT
A: label 1

Q: Let us now turn to ACAGACAGGTGATAAAGGTAACTCAGGCTATCAT
A: label 0

Q: Let us now turn to TCTAGCAGGCCAGAGGGTCTCTCAAGAGGTACGG
A: label 0

Q: Let us now turn to AGAATGAGGTTATACGTAAATCAGGGAAGAAAGT
A: label 1

---
Q: Check the entry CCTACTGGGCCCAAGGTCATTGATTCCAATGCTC : does PBM binding z-score equal or exceed -0.05?
A: label 1

Q: Let us now turn to CATCAAAGTTCAAGGTAACGTAACAGAAAGCAGC
A: label 1

Q: Let us now turn to TCTTGTAGATCAGCAGGAGGTTAAGAAAGATCGA
A: label 0

Q: Let us now turn to TCGAGTAGGTCAGTCGGGGCATTCAGCCAACATA
A: label 0

Q: Let us now turn to GGAACGAGGGCATTCGAGTTGATAGTATGGCGAT
A: label 1

Q: Let us now turn to ATCGCTAGGTAACCAAGTTCAGTGAATGCCGAAC
A: label 0

Q: Let us now turn to ATCTCTAGGTAAAAGTGCAGTGAATCCCGAGGAT
A: label 0

###

# System: PPARg DBDmut IVT, anti-PPARg (DBD mutation: PPARg1 K132A/R137A, NR concentration 270 nM)
# PROTOCOL SUMMARY: PBM binding z-score (relative to random genomic background probes); higher = stronger binding; sequences stand for … in GC…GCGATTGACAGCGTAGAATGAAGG
Overview of recorded PBM binding z-score for various sequences

Q: Look up PBM binding z-score: CGTCGAAGGTCATAGGAGGTCAGTGAAGACAGAT
A: -0.169

Q: Let us now turn to ATATGTAGGTTAAATCCGGGTCATTCAGGCTATG
A: 2.7

Q: Let us now turn to CTCGATAGGTCGGTTGAGGTGAGTATACGGATAA
A: 0.287

Q: Let us now turn to CAAACTTGGTCACAGAGGTCAAAGTCCGTGCGTA
A: 0.268

Q: Let us now turn to AGAATGAGGTTATTAAGATCAGGGAGTTGCGGTC
A: 0.57

---
Q: Look up PBM binding z-score: AGTCAAAGTTAATCTAGGTAACGTAAGATATGCT
A: 1.19

Q: Let us now turn to CAAACTAGGTCAAGGGCAAAGTCGGTTTGTGCCA
A: 2.46

Q: Let us now turn to AATAGCAGGCCAAGGGTCACTCAAGATTAGTCCG
A: -0.162

Q: Let us now turn to ATCTCTAGGTAGAAGTTCAGTGAATCCCGAGGAT
A: 0.43

Q: Let us now turn to ATCGAAAGGTCGACGAGGTGGGTATACACCGTTT
A: 1.26

Q: Let us now turn to ACAGACAGGTGAGTGAAGGGAACTCAGCTGGACG
A: -0.714

Q: Let us now turn to TCTCGGAGGACTCGAAGGTCAGAGCTTTCCAGAG
A: -1.86

# credit: the supplement of paper PMC6555819
